Experiment: NCI Yeast Anticancer Drug Screen. Data for the bub3 strain (AID 167)
Conditions: S. cerevisiae bub3 mutant strain, at 50.0 µM, active compounds read high
Description: Growth inhibition of yeast strains with defined genetic alterations is measured as a screen for potential anti-cancer activity. Selected strains with alterations in DNA damage repair or cell cycle control were exposed to compounds and growth inhibition was measured relative to vehicle treated controls. The strain used in this assay is bub3
This is part of a sample that, as a whole, favours compounds with a hit. Of some 79,000 tested, about 15% had one in any assay.
Readings of growth inhibition for the listed compounds
Please respond with the number in % and leave the unit unwritten.

Consider the following illustrative entries.
# compound, measured-endpoint, measure-unit, observed-measurement
measured = [
    ("C=C1CC(Cn2cc(C)c(=O)[nH]c2=O)(c2ccc(-c3ccccc3)cc2)OC1=O (centres undefined)", "growth inhibition", "%", 29.5),
    ("C=C(C(N)=O)c1ccc([N+](=O)[O-])o1", "growth inhibition", "%", 19.8),
    ("C=Cc1cc2c(cc1O)CC[C@@H]1[C@@H]2CC[C@]2(C)[C@@H](O)CC[C@@H]12", "growth inhibition", "%", 22.9),
]

Prompt line: So what's the measured growth inhibition for this one? CC(C)OP(=O)(OC(C)C)c1ccc2c(c1)OCCOCCOCCOCCO2
Response line: -0.15

Prompt line: So what's the measured growth inhibition for this one? Nc1c(Cl)ncnc1NCCc1ccccc1
Response line: -11.8

Prompt line: So what's the measured growth inhibition for this one? COCC(=O)C(C(C)=O)C(c1ccc2c(c1)OCO2)C(C(C)=O)C(=O)COC (centres undefined)
Response line: -5.75

Prompt line: So what's the measured growth inhibition for this one? Cc1cc(C)c(S(N)(=O)=O)c(C)c1
Response line: -15.1

Prompt line: So what's the measured growth inhibition for this one? CCOC(=O)C(Cc1cn(C(C)=O)c2ccccc12)P(=O)(OCC)OCC (centres undefined)
Response line: 1.05

Prompt line: So what's the measured growth inhibition for this one? FC1=C2C3CCC(C3)C2C1(F)F (centres undefined)
Response line: 2.7

Prompt line: So what's the measured growth inhibition for this one? Cc1nc(-n2nc(-c3ccccc3)cc2-c2ccccc2)sc1C(/C=C/c1ccc([N+](=O)[O-])cc1)=N/NC(N)=S
Response line: 44.4

Prompt line: So what's the measured growth inhibition for this one? NC(=S)N/N=C/C1=C(Cl)c2ccccc2C1
Response line: -2.55

----------
test: NCI Yeast Anticancer Drug Screen. Data for the bub3 strain (AID 167); conditions: S. cerevisiae bub3 mutant strain, at 50.0 µM, active compounds read high
This is part of a sample that, as a whole, favours compounds with a hit. Of some 79,000 tested, about 15% had one in any assay. The source made the active and inactive calls. No stated cut-off is given here; in the data, active means growth inhibition above about 70%; inactive means the rest.
measured-endpoint: growth inhibition

Consider the following illustrative entries.
# compound, observed-measurement
data = [
    ("NNS(=O)(=O)c1ccc(Oc2ccc(S(=O)(=O)NN)cc2)cc1", "14.9% (inactive)"),
    ("C=C1CC/C=C(\\C)C(=O)C(O)C2C1CC2(C)C (stereo not drawn)", "23.9% (inactive)"),
    ("O=c1c2c([nH]c(=S)n1-c1ccccc1)NCCC2", "9.55% (inactive)"),
    ("Cn1c(N)c(/C=C/C(=O)Oc2ccccc2)c(=O)n(C)c1=O", "-8.8% (inactive)"),
    ("CCC1C(=O)OCc2c1cc1n(c2=O)C(CC)c2c-1nc1ccccc1c2Cl (stereo not drawn)", "-2.95% (inactive)"),
    ("CCOC(=O)C(OC(C)=O)(C(=O)OCC)C(O)c1cccnc1 (stereo not drawn)", "8% (inactive)"),
    ("CCCCCCC(C)OC(C)=O (stereo not drawn)", "-3.5% (inactive)"),
    ("CCOC(=O)/C=C\\C(=O)O.[Mn]", "-31% (inactive)"),
    ("CC1(O)c2ccccc2-c2c1n([O-])c1ccccc1[n+]2=O (stereo not drawn)", "-1.8% (inactive)"),
    ("Cc1c(C(=O)Nc2ccccc2)nnn1-c1ccnc2cc(C(F)(F)F)ccc12", "-5.6% (inactive)"),
]

Prompt line: So what's the measured growth inhibition for this one? CCOC(=O)C(Cc1c[nH]c2ccccc12)NCCN (stereo not drawn)
Response line: -7.25% (inactive)

Prompt line: So what's the measured growth inhibition for this one? CNC1C(CO)OC(OC)C1O (stereo not drawn)
Response line: 1.2% (inactive)

Prompt line: So what's the measured growth inhibition for this one? N/N=C(/Cc1nc2ccc(C(=O)c3ccccc3)cc2[nH]c1=O)C(=O)Nc1ccc([N+](=O)[O-])cc1[N+](=O)[O-]
Response line: 5.2% (inactive)

----------
Readings of growth inhibition for the listed compounds
Test: NCI Yeast Anticancer Drug Screen. Data for the mec2-1 strain (AID 157)
Details: S. cerevisiae mec2-1 strain, at 50.0 µM, active compounds read high
Protocol: Growth inhibition of yeast strains with defined genetic alterations is measured as a screen for potential anti-cancer activity. Selected strains with alterations in DNA damage repair or cell cycle control were exposed to compounds and growth inhibition was measured relative to vehicle treated controls. The strain used in this assay is mec2-1
The panel holds about 79,000 compounds, 15% with a hit somewhere; the sample as a whole holds those more often.
Please respond with the number in % and leave the unit unwritten.

Consider the following illustrative entries.
# compound, measure-unit, observed-measurement
measured = [
    ("CC1=C(C(=O)NNC(=O)CC#N)CC(C(=O)NNC(=O)CC#N)=C(C)N1", "%", -43.8),
    ("CCN(CCO)CC(O)Cn1cnc2c(N)ncnc21 (stereo unspecified)", "%", -13.6),
    ("CCN(CC)C(C)(C)C(=O)/C=C/c1ccc(C)cc1", "%", -3.75),
    ("CC1C(=O)OC(=O)C1C (stereo unspecified)", "%", -6.2),
    ("CC1(COc2ccccc2)NC(=O)c2ccccc2O1 (stereo unspecified)", "%", -13.4),
]

Prompt line: So what's the measured growth inhibition for this one? CCOC(=O)c1c(SCCO)n(-c2ccccc2)c(=S)n(-c2ccccc2)c1=O
Response line: -25.2

----------
assay: NCI Yeast Anticancer Drug Screen. Data for the mec2-1 strain (AID 157); conditions: S. cerevisiae mec2-1 strain, at 50.0 µM, active compounds read high
About 79,000 compounds went through this panel and 15% of them were active in at least one assay; those are over-represented in the sample as a whole. Calls of active or inactive are those of the source. Rule as the data show it: active = growth inhibition above about 70%; inactive = the rest. Where a SMILES comes first, the peptide text is derived from it. [ ]: non-standard residue; d: D form. The star is where a group is joined. Cbz = O=C(OCc1ccccc1)*; Dha = C=C(N)C(=O)O
Readings of growth inhibition for the listed compounds

Consider the following illustrative entries.
# compound, measured-endpoint, observed-measurement
data = [
    ("O=C1C2=C(OCO2)C(=O)C2=C1OCO2", "growth inhibition", "20.8% (inactive)"),
    ("CN(C=O)C(C(=O)Nc1cccc2c(OC(=O)C(N(C)C=O)(N(C)C=O)N(C)C=O)c(N=Nc3ccc(S(=O)(=O)Nc4nccs4)cc3)cc(N=Nc3ccc(S(=O)(=O)Nc4nccs4)cc3)c12)(N(C)C=O)N(C)C=O (tested in a mixture with another compound)", "growth inhibition", "6.25% (inactive)"),
    ("CSC(c1ccc(Oc2ccccc2)cc1)=[N+]1CCCCC1", "growth inhibition", "13.2% (inactive)"),
]

Prompt line: So what's the measured growth inhibition for this one? NC(CCSCC(F)F)C(=O)O (configuration not stated)
Response line: 8.9% (inactive)

Prompt line: So what's the measured growth inhibition for this one? O=COCCc1ccccc1
Response line: -6.2% (inactive)

Prompt line: So what's the measured growth inhibition for this one? O=C(CC(C(=O)c1ccc(F)cc1)c1ccsc1)c1cccs1 (configuration not stated)
Response line: 2.3% (inactive)

Prompt line: So what's the measured growth inhibition for this one? COC(=O)C(CCS(=O)(=O)CC(=O)C(=O)Nc1cccc(C(C)=O)c1)C(=O)OC
Response line: -15.1% (inactive)

Prompt line: So what's the measured growth inhibition for this one? OCCCOC(c1ccccc1)(c1ccccc1)c1ccccc1
Response line: -29.4% (inactive)

Prompt line: So what's the measured growth inhibition for this one? C[C@@]1(CO)CCc2c(c3ccccc3oc2=O)O1
Response line: 6.45% (inactive)

Prompt line: So what's the measured growth inhibition for this one? CCCCCC/C(CC(=O)CCC(=O)NCCc1ccccc1)=N\Nc1ccc([N+](=O)[O-])cc1[N+](=O)[O-]
Response line: 14.9% (inactive)

Prompt line: So what's the measured growth inhibition for this one? CC1=C(C(=O)NCc2ccccc2)C(c2ccccc2C)C(C(=O)NCc2ccccc2)=C(C)N1
Response line: 26% (inactive)

Prompt line: So what's the measured growth inhibition for this one? CCN(CC)CCN(C)C(=O)C(=O)c1ccccc1
Response line: -0.85% (inactive)

Prompt line: So what's the measured growth inhibition for this one? Cc1onc(-c2ccccc2)c1NC(=O)OC(C)c1cccnc1 (configuration not stated)
Response line: -22.9% (inactive)

Prompt line: So what's the measured growth inhibition for this one? [O-][n+]1onc2c1CCC(=N\O)/C2=N/Nc1ccccc1
Response line: -1.05% (inactive)

Prompt line: So what's the measured growth inhibition for this one? CC1=NOC2(C1)C(=O)Nc1ccccc12 (configuration not stated)
Response line: 9.5% (inactive)

Prompt line: So what's the measured growth inhibition for this one? ClCCCCCCCCCCl
Response line: -17.4% (inactive)

Prompt line: So what's the measured growth inhibition for this one? C=C(NC(=O)CNC(=O)OCc1ccccc1)C(=O)O (Cbz-Gly-[Dha]-OH)
Response line: 11.2% (inactive)

Prompt line: So what's the measured growth inhibition for this one? CC(=O)N1CN=C2Sc3ccccc3N2C1
Response line: 0.2% (inactive)

Hey, just so you know, these numbers are from PubChem BioAssay (NCI).
